- assay-protocol: small molecules captured by biotinylated probe aFGF10 – biochemical, small-molecule microarray, fluorescence 635/667, stem cell growth factor project, primary screen (AID 1071);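 also: score merges 667 nm spot intensity and signal to noise from triplicate slides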
- cond: higher = more signal
Catalogue of compounds with associated composite z-score

Solved entries:
O=C1N(Cc2ccccc2)c2ccccc2C[C@@]12COC(c1ccc(OCCCO)cc1)=N2    0.979
O=C1C2C=CC(C(O)c3cccs3)N(Nc3ccc([N+](=O)[O-])cc3)C2C(=O)N1c1ccccc1 (configuration not stated)    0.362
C=CCNC(=O)[C@H]1[C@@H]2C(=O)O[C@@H](c3ccccc3)[C@@H](c3ccccc3)N2[C@@H](c2ccccc2OCCO)[C@]12C(=O)N(C(=O)OCCOC)c1ccc(C#Cc3ccc(OC)cc3)cc12    0.668
CC(C)C[C@@H]1NC(=O)[C@@]23C(=O)N[C@@H](Cc4ccccc4)C2[C@H](C)[C@@]2(C)O[C@H]2C3/C=C/C/C=C\CNC(=O)CNC1=O (some centres not stated)    0.573
O=C1C[C@@](C(=O)O)(c2ccc([N+](=O)[O-])cc2)[C@@H](c2ccc(CO)cc2)N1C1CCCCC1    0.687

Reported composite z-score, compound `O=C(NCc1ccccc1)[C@@H]1c2ccccc2C(=O)N(Cc2cc(C(F)(F)F)cc(C(F)(F)F)c2)[C@H]1c1ccc(CO)cc1` : ____
0.409

Also need CC(C)(C)N1CC=CC23O[C@@H]4C=CCOC(=O)[C@@H]4[C@H]2C(=O)N(CCO)[C@@H]3C1=O (some centres not stated) , thanks.
-0.437
